Tested on: CCRIS mutagenicity, Ames/micronucleus/aberration tests
PROTOCOL_TEXT: CCRIS mutagenicity studies
MEASUREMENT_SETUP: Test System: AMES SALMONELLA TYPHIMURIUM; Strain/Indicator: TA1535; Metabolic Activation: NONE; Method: PREINCUBATION
Activity calls are given as the source filed them. No rule for the calls is given here.
Labels: 1 for active, 0 for inactive

Oc1cc(O)c2ccccc2c1; 0
CC(=O)[O][Hg][c]1ccccc1; 0
COC(=O)C(c1ccccc1)C1CCCCN1 (stereo not given); 0
c1ccc(-c2ccc(CC3CO3)cc2)cc1 (stereo not given); 1
CCN(N=O)C(N)=O; 1
CCCCC(CC)COC(=O)c1ccc(N(C)N=O)cc1 (stereo not given); 0
CCCCC1C(=O)N(c2ccccc2)N(c2ccccc2)C1=O; 0
C=CC(=O)OCCCCCCOC(=O)C=C; 0
COc1cc(/C=C/C(=O)CC(=O)/C=C/c2ccc(O)c(OC)c2)ccc1O; 0
NCCNC(=O)c1ccc(Cl)cn1; 0
CCN(CC)N=O; 0
CCCSC(=O)Cl; 0
CC(=O)NNc1ccc(CO)cc1; 0
COCCO; 0
CN(C)c1ccc(N(C)C)cc1; 0
